Assay Name: Cmax in human RBC engrafted NOD-SCID IL-2Rgamma-null mouse at 10 mg/kg, po
Assay type: ADME, organism-based
Parameters: dose 10 mg/kg, route oral
Particulars: in vivo
Endpoint: Cmax (µM)
// note: answer is a bare numeric in µM

[in] Entry Cc1cc(Nc2cc(F)c(C(F)(F)F)c(F)c2)n2ncnc2n1 : reported Cmax = ?
[out] 8.5

---

Assay Name: in vivo
Particulars: Swiss outbred, mouse, po, 50 mg/kg
Reported Tmax values are given for each entry in this list.
// note: answer is a bare numeric in h

| Compound | Unit Symbol | Tmax |
| --- | --- | --- |
| Cc1cc(Nc2ccc(S(F)(F)(F)(F)F)cc2)n2nc(C(C)(F)F)nc2n1 [DSM-265] | h | 2 |

Pending compound:
[in] Entry Cc1cc(Nc2ccc(C(F)(F)F)cc2)n2nc(C(C)(F)F)nc2n1 : reported Tmax = ?
[out] 2

Where do these numbers come from? They come from ChEMBL document CHEMBL1955725.
